# SYSTEM: Luciferin 4-monooxygenase (Photinus pyralis) (UniProt P08659)
# Sequence (P08659 whole entry, looked up): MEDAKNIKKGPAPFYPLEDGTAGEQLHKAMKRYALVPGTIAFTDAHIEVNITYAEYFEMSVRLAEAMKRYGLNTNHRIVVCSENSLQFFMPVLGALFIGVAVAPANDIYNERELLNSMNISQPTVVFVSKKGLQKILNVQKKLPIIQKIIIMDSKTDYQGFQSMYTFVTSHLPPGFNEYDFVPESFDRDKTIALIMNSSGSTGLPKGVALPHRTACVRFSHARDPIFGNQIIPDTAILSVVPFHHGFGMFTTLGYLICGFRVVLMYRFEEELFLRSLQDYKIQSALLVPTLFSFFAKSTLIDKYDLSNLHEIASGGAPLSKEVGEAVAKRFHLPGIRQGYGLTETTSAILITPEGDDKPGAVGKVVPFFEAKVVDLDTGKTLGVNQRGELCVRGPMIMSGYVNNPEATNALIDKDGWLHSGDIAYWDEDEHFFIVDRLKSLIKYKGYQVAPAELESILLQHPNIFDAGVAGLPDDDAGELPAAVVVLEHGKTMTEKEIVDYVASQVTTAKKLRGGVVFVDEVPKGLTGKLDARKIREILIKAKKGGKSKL
# TEST PROTOCOL: Biochemical firefly luciferase enzyme assay for NPC (AID 624030); further: nearly all actives have a fitted effect of over 70% in size
# RUN CONDITIONS: purified P. pyralis luciferase, luminescence, 5 min; series mostly up to 58.6 µM
Results filed as inconclusive are left out. Active and inactive are the calls of the source. The call rests on the fitted dose curve; in most records, active means well fitted inhibition curve with a large enough effect; inconclusive means small, poorly fitted or top-dose-only effect; inactive means flat fitted curve, though single readings scatter.
Write down the outcome that applies. Available outcomes: TRUE = active, FALSE = inactive

COMPOUND	GROUP
O=C(O)c1cccc(/C=C2/C[C@@H]3[C@@H](/C=C/[C@@H](O)C4CCCCC4)[C@H](O)C[C@@H]3O2)c1	FALSE
O=C(Cn1cnnn1)N[C@@H]1C(=O)N2C(C(=O)O)=C(CSc3nncs3)CS[C@H]12	FALSE
O=C(O)CC(O)(CC(=O)O)C(=O)O	FALSE
O=P(O)(O)C(Sc1ccc(Cl)cc1)P(=O)(O)O	FALSE
CCOC(=O)Cc1cccc(-c2cc(CCCCCCc3ccc(O[C@H]4O[C@H](COC(C)=O)[C@@H](OC(C)=O)[C@H](OC(C)=O)[C@@H]4OC(C)=O)c(-c4cccc(CC(=O)OCC)c4)c3)ccc2O[C@H]2O[C@H](COC(C)=O)[C@@H](OC(C)=O)[C@H](OC(C)=O)[C@@H]2OC(C)=O)c1	FALSE

Qu. Per the assay record, what outcome was assigned to O=C(O)c1cc2ccccc2c(Cc2c(O)c(C(=O)O)cc3ccccc23)c1O ?
Ans. TRUE

Qu. Per the assay record, what outcome was assigned to CC(CN(C)C)CN1c2ccccc2S(=O)(=O)c2ccccc21 (configuration not stated) ?
Ans. FALSE

Qu. Per the assay record, what outcome was assigned to CCN1CCCC1CNC(=O)c1cc(S(=O)(=O)CC)ccc1OC (configuration not stated) ?
Ans. FALSE

Qu. Per the assay record, what outcome was assigned to O=P(O)(O)OC(Cn1cncn1)(Cn1cncn1)c1ccc(F)cc1F ?
Ans. FALSE

Qu. Per the assay record, what outcome was assigned to CCC(C)(C)OC(=O)N[C@@H](Cc1c[nH]c2ccccc12)C(=O)N[C@@H](CCSC)C(=O)N[C@@H](CC(=O)O)C(=O)N[C@@H](Cc1ccccc1)C(N)=O ?
Ans. FALSE

Qu. Per the assay record, what outcome was assigned to NNc1nnc(Cc2ccncc2)c2ccccc12 ?
Ans. TRUE

Qu. Per the assay record, what outcome was assigned to CNC[C@@H]1CC[C@@H](N)[C@@H](O[C@H]2[C@H](O)[C@@H](O[C@H]3OC[C@](C)(O)[C@H](NC)[C@H]3O)[C@H](N)C[C@@H]2N)O1 ?
Ans. FALSE

---

# TEST PROTOCOL: Primary fluorescence-based thiol-reactive (MSTI) qHTS assay for identification of artifact compounds. (AID 1845221);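 further: thiol-reactive compounds lower the probe fluorescence signal; nearly all actives have a fitted effect of over 65% in size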
# RUN CONDITIONS: MSTI thiol-reactivity probe, 1 h; series mostly up to 53.8 µM
Results filed as inconclusive are left out. Calls of active or inactive are those of the source. The call rests on the fitted dose curve; in most records, active means well fitted inhibition curve with a large enough effect; inconclusive means small, poorly fitted or top-dose-only effect; inactive means no such curve, though single readings can be large or run the other way.
Write down the outcome that applies. Available outcomes: Yes for active, No for inactive

These recorded examples may help you get a feel for the data.
COMPOUND	GROUP
Cc1cccc(CC(=O)N2CCc3c2ccc(-c2cn(C)c4ncnc(N)c24)c3F)n1	No
COc1cc(/C=C/C(=O)NCCn2c(C(F)(F)F)cc3ccccc32)cc(OC)c1OC	No
COc1cc(C(=O)O)ccc1NC(=O)C1NC(CC(C)(C)C)C(C#N)(c2ccc(Cl)cc2F)C1c1cccc(Cl)c1F (configuration not stated)	No
CC(C)n1cnc2c(-c3cnc(N)nc3)nc(N3CCOCC3)nc21	No
CCC(CC)(NC(=O)C(C)C)C(=O)N[C@@H](CCCN=C(N)N)C(=O)NC1(C(=O)NC(c2ccc(F)cc2)c2ccc(F)cc2)CCCC1	No
C=C(C)C(=O)O[C@H]1[C@H]2C(=C)C(=O)O[C@@H]2C[C@@H](C)[C@@H]2O[C@@H]2C(=O)[C@](C)(O)[C@@H]1OC(=O)C(=C)C	No
C[C@H](CN(C)C)Oc1nc(Nc2cc3cccc(Cl)c3cn2)cnc1C#N	No
NC(=O)c1cnc(N[C@@H]2CCCC[C@H]2N)nc1Nc1cccc(-n2nccn2)c1	No

Qu. Per the assay record, what outcome was assigned to CN(C)CC1CCn2c(c(C3=C(c4cn(C)c5ccccc45)C(=O)NC3=O)c3ccccc32)C1 (configuration not stated) ?
Ans. No

Qu. Per the assay record, what outcome was assigned to Fc1ccc(N2CCN(CCC3OCCc4ccccc43)CC2)cc1 (configuration not stated) ?
Ans. No

Qu. Per the assay record, what outcome was assigned to O=C(c1ccc(Cl)cc1)N1CCN(c2ccnc3cc(Cl)ccc23)CC1 ?
Ans. No

Qu. Per the assay record, what outcome was assigned to CCC(C)C(=O)OC12C(OC(C)=O)C(C)C3(O)C(C=C(CO)CC4(O)C(=O)C(C)=CC43)C1C2(C)C (configuration not stated) ?
Ans. No

Qu. Per the assay record, what outcome was assigned to Cc1ccc(CNc2ncnc3ccc(-c4ccc(CO)o4)cc23)o1 ?
Ans. No

Qu. Per the assay record, what outcome was assigned to O=C1c2ccc(Nc3ccc(F)cc3F)cc2CCc2ccc(OCC(O)CO)cc21 (configuration not stated) ?
Ans. No
